system: SK-OV-3 ovarian; assay: NCI-60 one-dose screen, 48 h (100 = growth as untreated, 0 = no growth, -100 = all killed); conditions: 10 µM
This is part of a sample that, as a whole, favours compounds with a hit. Of some 83,000 tested, about 20% had one in any assay.
quantity-name: growth (%)
# unit: % | format: bare number

Inquiry: Give the reported growth for COc1c(-c2c3sc(=O)[nH]c3nc3c2c(=O)[nH]n3C(C)C)cc2c(c1OC)OCO2 (system: SK-OV-3 ovarian).
Reply text: 99.5

Inquiry: Give the reported growth for S=C(Cc1ccc(-c2ccccc2)cc1)N1CCOCC1 (system: SK-OV-3 ovarian).
Reply text: 102

Inquiry: Give the reported growth for NC(=O)C1CCCN(Cc2c[nH]c3ccccc23)C1 (configuration not stated) (system: SK-OV-3 ovarian).
Reply text: 100

Inquiry: Give the reported growth for COc1ccc(C(=O)/C=C/c2cc(-c3ccc4c(c3)OCO4)n[nH]2)cc1OC (system: SK-OV-3 ovarian).
Reply text: 93.3

Inquiry: Give the reported growth for CC(C)C[C@H](NC(=O)CCn1ccc2ccccc2c1=O)B(O)O (system: SK-OV-3 ovarian).
Reply text: 77.8

Inquiry: Give the reported growth for CCOc1ccc2c(c1)CC[C@@H]1[C@@H]2CC[C@]2(C)[C@@H](O)[C@@H](O)C[C@@H]12 (system: SK-OV-3 ovarian).
Reply text: 113

Inquiry: Give the reported growth for CCc1ccc(-c2nnc(COc3ccc(-c4nc5ccc(C)cc5[nH]4)cc3OC)o2)cc1 (system: SK-OV-3 ovarian).
Reply text: 33.9

Inquiry: Give the reported growth for COc1ccc(-c2nc(-c3ccccc3)c(-c3ccccc3)[nH]2)cc1OC1CCCC1 (system: SK-OV-3 ovarian).
Reply text: 89.3

Inquiry: Give the reported growth for CCC(O)c1ccc(Br)cc1NC(=O)c1cccc(Cl)c1 (configuration not stated) (system: SK-OV-3 ovarian).
Reply text: 34

Inquiry: Give the reported growth for C#CCn1c(-c2cccc(OCCCCl)c2)nc2c1c(=O)n(C)c(=O)n2C (system: SK-OV-3 ovarian).
Reply text: 93.7

Inquiry: Give the reported growth for CCOC(=O)c1c(Cl)c2c(n1Cc1cccc(OC)c1)-c1oncc1CC2 (system: SK-OV-3 ovarian).
Reply text: 17.2

Inquiry: Give the reported growth for O=C(NCc1cn(Cc2cccc(Oc3ccccc3)c2)nn1)c1cccnc1Nc1ccccc1 (system: SK-OV-3 ovarian).
Reply text: 49.6

Inquiry: Give the reported growth for COc1ccc(-c2nc(NC(=O)CS(=O)(=O)c3ccc(F)cc3)sc2C)cc1 (system: SK-OV-3 ovarian).
Reply text: 73.6

Inquiry: Give the reported growth for CN(C)c1ccc2c(c1)OC(N)=C(C#N)C2c1ccc2c(c1)CCCN2C (configuration not stated) (system: SK-OV-3 ovarian).
Reply text: 24.4

Inquiry: Give the reported growth for O=C/C=C/c1ccc([N+](=O)[O-])cc1Cl (system: SK-OV-3 ovarian).
Reply text: 104

Inquiry: Give the reported growth for Cc1c(C(=O)N[C@H](CO)Cc2ccccc2)[nH]c2ccc(Cl)cc2c1=O (system: SK-OV-3 ovarian).
Reply text: 99.8

Inquiry: Give the reported growth for Nc1cc2c(cc1Cl)-c1ccc(Cl)cc1C2=O (system: SK-OV-3 ovarian).
Reply text: 98.6

Inquiry: Give the reported growth for Nc1ccc(C2=CC(c3ccc(Cl)cc3)N3C=CSC3=N2)cc1 (configuration not stated) (system: SK-OV-3 ovarian).
Reply text: -51

Inquiry: Give the reported growth for COc1nc2c(c(=O)[nH]1)C(c1ccc(Oc3ccnc4cc(Cl)ccc34)c(OC)c1)C=C(c1cc(OC)c(OC)c(OC)c1)N2 (configuration not stated) (system: SK-OV-3 ovarian).
Reply text: 99.5

Inquiry: Give the reported growth for CCOc1cc(Br)c(C(C)NC(=O)c2cccc(OC)c2)cc1OCC (configuration not stated) (system: SK-OV-3 ovarian).
Reply text: 96

Inquiry: Give the reported growth for COc1ccc(-c2nnc(SCC(=O)c3ccccc3)o2)cc1 (system: SK-OV-3 ovarian).
Reply text: 102

Inquiry: Give the reported growth for Cc1ccc2c3c(cccc13)-c1ccccc1C2=O (system: SK-OV-3 ovarian).
Reply text: 92.1
